- Tested on: KM12
- assaySummary: Cytotoxicity against Homo sapiens (human) KM12 cells assessed as cell growth at 10 uM after 48 hr by SRB assay relative to control
- Type: functional
- conditionNotes: KM12, 48 h, read-out: Activity
propertyLabel: growth at 10 µM

> print(dat)
                                  cpdsmiles  result
1  COc1ccccc1CNC(=O)CSc1nc2ccccc2c2nc(=O)c(-c3ccccc3)nn12   43.3%
2  O=C(CSc1nc2ccccc2c2nc(=O)c(-c3ccccc3)nn12)NCc1ccccc1     12%
3  COc1ccc(-c2nn3c(SCC(=O)Nc4ccccc4Cl)nc4ccccc4c3nc2=O)cc1   34.8%
4  O=C(CSc1nc2ccccc2c2nc(=O)c(-c3ccccc3)nn12)NCc1ccc(F)cc1   9.97%
5  COc1ccc(-c2nn3c(SCC(=O)Nc4ccccc4F)nc4ccccc4c3nc2=O)cc1   51.3%
